Target: 12-LO (Homo sapiens, UniProt P18054)
Construct: 12-HETE (12-LO product from platelets in PMNL preparations); endogenous in cells
Sequence (P18054 whole entry): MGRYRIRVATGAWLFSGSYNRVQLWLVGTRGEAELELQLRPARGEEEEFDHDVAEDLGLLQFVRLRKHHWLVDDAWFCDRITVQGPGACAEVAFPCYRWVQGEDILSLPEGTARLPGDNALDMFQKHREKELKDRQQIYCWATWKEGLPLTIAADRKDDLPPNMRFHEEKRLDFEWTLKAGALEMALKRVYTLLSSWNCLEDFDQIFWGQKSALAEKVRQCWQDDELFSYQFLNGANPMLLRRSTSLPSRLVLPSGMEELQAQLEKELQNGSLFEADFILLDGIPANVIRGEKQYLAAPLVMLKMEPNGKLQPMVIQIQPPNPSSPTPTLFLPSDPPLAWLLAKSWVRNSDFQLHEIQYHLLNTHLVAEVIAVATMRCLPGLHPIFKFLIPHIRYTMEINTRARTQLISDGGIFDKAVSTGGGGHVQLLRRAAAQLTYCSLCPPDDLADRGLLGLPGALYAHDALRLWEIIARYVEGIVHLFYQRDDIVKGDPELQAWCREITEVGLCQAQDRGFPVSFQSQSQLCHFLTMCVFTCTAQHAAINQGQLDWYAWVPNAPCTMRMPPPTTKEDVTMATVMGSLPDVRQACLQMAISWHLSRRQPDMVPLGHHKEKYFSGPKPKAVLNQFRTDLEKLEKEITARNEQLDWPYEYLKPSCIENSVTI
Assay: 12-LO product formation in A23187/AA-activated PMNL
Description: Cells were washed and medium was exchanged. Freshly isolated PMNL (1 × 10^7) and stably transfected HEK-293 (1 × 10^6) cells were suspended in PBS pH 7.4 containing 1 mg/ml glucose and 1 mM CaCl2. […] A23187- and A23187/AA-treated PMNL and A23187/AA-treated HEK-293 (5-LO_wt), HEK-293 (5-LO_3W) and HEK-293 (5-LO_Arg101Asp) cells produced 135 ± 21, 636 ± 112, 300 ± 59, 133 ± 29, 55 ± 9 ng 5-LO products, respectively. […] 5-LO products from monocytes were analyzed by UPLC-MS/MS.
recordedEndpoint: IC50

* Cc1c(C)c2c(c(C)c1O)CC[C@@](C)(CCCC(C)CCCC(C)CCCC(C)C(=O)O)O2 (stereo partly shown) [4a] | > 3 µM
